Protocol Text: Influencing factors stability test (light exposure, high temperature, high humidity)
Format: physicochemical
Condition Context: solid storage, 40°C, 10 days; read-out: Purity%
Test Readout: remaining at 240 h (%)
Report as a plain number; the unit % is understood.

Lookup: Dear colleague, I am looking for the recorded remaining at 240 h of the following compound: FC1(F)Oc2ccc(Nc3ccc4cccc(Cl)c4n3)cc2O1 [crystal form A]
Found: 100

---

Protocol Text: Influencing factors stability test (light exposure, high temperature, high humidity)
Assay type: physicochemical
Condition Context: solid storage, Light exposure (4500 Lux), 10 days; read-out: Purity%
Test Readout: remaining at 240 h (%)
Report as a plain number; the unit % is understood.

Lookup: Dear colleague, I am looking for the recorded remaining at 240 h of the following compound: FC1(F)Oc2ccc(Nc3ccc4cccc(Cl)c4n3)cc2O1 [crystal form A]
Found: 100

---

Protocol Text: Long-term accelerated stability tests
Assay type: physicochemical
Condition Context: solid storage; 25 °C, 60% RH, 6M; read-out: Purity (%)
Test Readout: remaining at 4320 h
Mention the unit after the number when you answer.

Lookup: Dear colleague, I am looking for the recorded remaining at 4320 h of the following compound: FC1(F)Oc2ccc(Nc3ccc4cccc(Cl)c4n3)cc2O1 [crystal form A]
Found: 100%

---

Protocol Text: Influencing factors stability test (light exposure, high temperature, high humidity)
Assay type: physicochemical
Condition Context: solid storage, Light exposure (4500 Lux), 5 days; read-out: Purity%
Test Readout: remaining at 120 h (%)
Report as a plain number; the unit % is understood.

Lookup: Dear colleague, I am looking for the recorded remaining at 120 h of the following compound: FC1(F)Oc2ccc(Nc3ccc4cccc(Cl)c4n3)cc2O1 [crystal form A]
Found: 100
